B1: NELF-E aptamer (parent)
chain: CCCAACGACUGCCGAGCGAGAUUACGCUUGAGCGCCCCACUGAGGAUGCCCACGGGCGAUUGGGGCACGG

Variants of: B1
Assay: HiTS-RAP
Settings: with NELF-E (Drosophila)
pKd: −log10 of the molar value.
Classification field: enter class 1 for pKd values not below 8, class 0 for values below it.

CCCAACGACUGCCGAGCGAGAUUACGCUUGAGCGCCCCACUGAGGAUCCCCACGGGCGAUUGGGGCACGG: class 0
CCCAACGAUUGCCGAGCGGGAUUACGCUUGAGCGCCCCACUGAGGAUGCCCACGGGCGAUUGGGGCACGG: class 1
CCCAACGACUGCCGAGCGAGAUUACGCUGGAGCGCCCCACUGAAGAUGCCCACGGGCGAUUGGGGCACGG: class 0
CCCAACGACUGCCGAGCGAGAUUACGCUCGAGCGCCCCACUGAGGAUGCCCACGGGCGAUUGGGGCACGG: class 1
CCCAACGACUGCCUAGCGAGAUUACGCUUGAGCGCCCCACUGAGGAUGCCCACGGGCGAUCGGGGCACGG: class 0
CCCAACGACUGCCGAGCGAGAGUACGCAUGAGCGCCCCACUGAGGAUGCCCACGGGCGAUUGGGGCACGG: class 1
CCCAACGACUGCCGAGCGAGAGUACGCUUGAGCGCCCCACUGAGGAUGCCCACGGGCGGUUGGGGCACGG: class 0
CCCAACGACUGCCGAGCGAGAUUACGCUGGAGCGCCCCACUGAGGAUGCCGACGGGCGAUUGGGGCACGG: class 1
CCCAACGACGGCCGAGCGAGAUUACGCUUGAGCGCCCCAGUGAGGAUGCCCACGGGCGAUUGGGGCACGG: class 1
CCCAACGACUGCCCAGCGAGAUUACGCUGGAGCGCCCCACUGAGGAUGCCCACGGGCGAUUGGGGCACGG: class 1
CCCAACGAGUGCCGAGCGAGAUUACGCUUGAGCGCCCCACUGAGGAUGCCCGCGGGCGAUUGGGGCACGG: class 1
CCCAAUGACUGCGGAGCGAGAUUACGCUUGAGCGCCCCACUGAGGAUGCCCACGGGCGAUUGGGGCACGG: class 1
CCCAACGACUGCCGAGCGAGAUUGCGCUUGAGCGCCCCACUGAGGAUGCCCACGGGCGAUUGGGGUACGG: class 1
CCCAACGACUGCGGAGCGAGAUGACGCUUGAGCGCCCCACUGAGGAUGCCCACGGGCGAUUGGGGCACGG: class 1
CCCAACGACUGCGGAGCGAGAUCACGCUUGAGCGCCCCACUGAGGAUGCCCACGGGCGAUUGGGGCACGG: class 1
CCCAACGACGGCCGAGCGAGAGUACGCUUGAGCGCCCCACUGAGGAUGCCCACGGGCGAUUGGGGCACGG: class 1
CCCAACGACUGCCGAGCGAGAUUACGCUUGAGCGCCCCACUGAGGAUGCCCACGGGCGAUUGGGGUACGG: class 1
CCCAACGACUGCCGAGCGAGAUUACGCUAGUGCGCCCCACUGAGGAUGCCCACGGGCGAUUGGGGCACGG: class 1
CCCAGCGACUGCCGAGCGAGAUUACGCUUGAGCGCCCCACUGAGGAUGCCCACGGGCGAUAGGGGCACGG: class 0
CCCAACGACUGCCGAGCGAGGUUACGCUGGAGCGCCCCACUGAGGAUGCCCACGGGCGAUUGGGGCACGG: class 1
CCCAACGACUGCCGAGGGAGAUUACGCUUGAGUGCCCCACUGAGGAUGCCCACGGGCGAUUGGGGCACGG: class 1
CCCAACGACGCCCGAGCGAGAUUACGCUUGAGCGCCCCACUGAGGAUGCCCACGGGCGAUUGGGGCACGG: class 1
CCCAACUACUGCCGAGCAAGAUUACGCUUGAGCGCCCCACUGAGGAUGCCCACGGGCGAUUGGGGCACGG: class 1
CCCAACGACUGCCGAGCGAGAUUACGCUUGAGCGCCCCACUGAGGAUGCCCACGGGCGAUUGCGGCACGG: class 0
CCCGACGACUGCCGAGCGAGAUUACGCUUGAGCGCCCCACUGAGGAUGCCCACGGGCGGUUGGGGCACGG: class 0
CCCAACGACUGCCGAGCGAGAUGACGCUAGAGCGCCCCACUGAGGAUGCCCACGGGCGAUUGGGGCACGG: class 1
CCCAACGAGUGCCGAGCGAGAUUACGUUUGAGCGCCCCACUGAGGAUGCCCACGGGCGAUUGGGGCACGG: class 1
CCCAAGGACUGCCGAGCGAGAUUACGCUUGAGCGCCCCCCUGAGGAUGCCCACGGGCGAUUGGGGCACGG: class 0
CCCAACGACGGCCGAGCGAGAUUACGCUUGAGCGCCCCACUGAGGAUGCCCACGGGCGAUUGGGGCGCGG: class 1
CCCAACGACUGCCGAGCGAGAUGACGCUUGAGCGCCCCACUGAGGAUGCGCACGGGCGAUUGGGGCACGG: class 1
CCCAACGACUGCCGAGCGGGAUUACGCUUGAGCGCCCCACUGAGGAUGCCCGCGGGCGAUUGGGGCACGG: class 1
CCCAUCGACUGCCGAGCGAGAUUACGCUUGAGCGCCCCACUGUGGAUGCCCACGGGCGAUUGGGGCACGG: class 0
CCCAACGACUGCGGAGCGUGAUUACGCUUGAGCGCCCCACUGAGGAUGCCCACGGGCGAUUGGGGCACGG: class 1
CCCAAGGACUGCCGAGCGAGAUUACGCUUGAGCGCCUCACUGAGGAUGCCCACGGGCGAUUGGGGCACGG: class 0
CCCAACGACUGCCGAGCGAGCUUACGCUUGAGCGCCCCACUGAGGAUGCCCACGGGCGAUUGGGGCACGG: class 1
CCCGACGACUGCCGAGCGAGAUUACGCUUGAGCGCCCCACUGAGGAUGCCCACGGGCGAUCGGGGCACGG: class 0

Source listed as the RNAGym collection of RNA variant scans (doi:10.1038/nmeth.2970).
